endpoint-name: melting point

Some entries whose results are on file:
query_smiles=COc1ccc(-c2cc(CN3CCN(C)CC3)c(=O)n(Cc3ccc(F)cc3)n2)cc1F endpoint_name="melting point" reported="112 to 113 °C"
query_smiles=COc1ccc(-c2cc(CN3CCN(C)CC3)c(=O)n(CC=Cc3ccc(Cl)cc3)n2)cc1F endpoint_name="melting point" reported="123.9 to 125.5 °C"
query_smiles=COc1ccc(-c2cc(CN3CCNCC3)c(=O)n(CC(C)C)n2)cc1Cl.Cl.Cl endpoint_name="melting point" reported="203.6 to 204.5 °C"
query_smiles=CNCc1cc(-c2ccc(OC)c(F)c2)nn(CC2CC2)c1=O endpoint_name="melting point" reported="169.1 to 170.7 °C"
query_smiles=CSc1ccc(-c2cc(CN(C)C)c(=O)n(CC(C)C)n2)cc1.Cl endpoint_name="melting point" reported="216.8 to 218.4 °C"
query_smiles=CC(C)Cn1nc(-c2ccc(-c3ccccc3)cc2)cc(CN(C)C)c1=O.Cl endpoint_name="melting point" reported="243.9 to 244.1 °C"
query_smiles=CC(C)Cn1nc(-c2ccc(C(F)(F)F)cc2)cc(CN2CCNCC2)c1=O.Cl.Cl endpoint_name="melting point" reported="210.8 to 212.5 °C"
query_smiles=Cc1ccc(-c2cc(CN3CCNCC3)c(=O)n(CC(C)C)n2)cc1F.Cl.Cl endpoint_name="melting point" reported="186.2 to 195 °C (dec.)"

Let's switch to this molecule now.
Q) Suppose we examine the molecule CC(C)Cn1nc(-c2ccccc2)cc(CN2CCN(C)CC2)c1=O.Cl.Cl ; what melting point value has been reported?
A) 243.8 to 244.3 °C
